The values you see were collected from paper PMC10586084.

- system: hCA XII (Homo sapiens)
- method: stopped-flow CO2 hydrase assay, hCA XII
- Format: biochemical
- conditions.used: ratio KI hCA II / KI hCA XII
observation.type: Selectivity index II/XII

molecule | Selectivity index II/XII
NS(=O)(=O)c1ccc(Nc2nc3nccc(-c4cccc(Cl)c4)n3n2)cc1 [Compound 1l] | 2.7

I = COc1ccc(-c2ccnc3nc(Nc4ccc(S(N)(=O)=O)cc4)nn23)cc1OC [Compound 1ab]
II = NS(=O)(=O)c1ccc(Nc2nc3nccc(-c4ccncc4)n3n2)cc1 [Compound 1c]
III = NS(=O)(=O)c1ccc(Nc2nc3nccc(-c4ccccc4[N+](=O)[O-])n3n2)cc1 [Compound 1s]
Exercise: Order these by Selectivity index II/XII, descending, and give the full ranking. Return the labels ranked in the requested order, please.
Key: I, II, III
(I: 10.6, II: 2.9, III: 1.6)

---

- system: hCA XII (Homo sapiens, UniProt O43570)
- Sequence (O43570 25-354): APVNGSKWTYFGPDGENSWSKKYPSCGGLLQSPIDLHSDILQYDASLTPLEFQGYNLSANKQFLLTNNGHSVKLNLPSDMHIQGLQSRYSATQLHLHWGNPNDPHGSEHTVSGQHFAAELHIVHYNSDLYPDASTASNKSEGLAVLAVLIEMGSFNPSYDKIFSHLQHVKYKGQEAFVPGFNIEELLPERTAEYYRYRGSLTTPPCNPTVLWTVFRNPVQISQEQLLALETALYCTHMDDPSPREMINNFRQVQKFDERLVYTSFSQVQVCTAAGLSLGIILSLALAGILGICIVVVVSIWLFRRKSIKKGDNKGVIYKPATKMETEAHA
- method: stopped-flow CO2 hydrase assay, hCA XII
- Type: biochemical
- conditions.used: ratio KI hCA II / KI hCA XII
observation.type: Selectivity index II/XII

smiles.notation | result
Cc1ccccc1-c1ccnc2nc(Nc3ccc(S(N)(=O)=O)cc3)nn12 | 1.4
NS(=O)(=O)c1ccc(Nc2nc3nccc(-c4ccc(F)cc4)n3n2)cc1 | 1.3
NS(=O)(=O)c1ccc(Nc2nc3nccc(-c4cccc(F)c4)n3n2)cc1 | 1.1
CCOc1ccc(-c2ccnc3nc(Nc4ccc(S(N)(=O)=O)cc4)nn23)cc1 | 1.2
NS(=O)(=O)c1ccc(Nc2nc3nccc(-c4ccc(I)cc4)n3n2)cc1 | 14.3

A = NS(=O)(=O)c1ccc(Nc2nc3nccc(-c4cccc([N+](=O)[O-])c4)n3n2)cc1
B = NS(=O)(=O)c1ccc(Nc2nc3nccc(-c4c(F)cccc4F)n3n2)cc1
C = NS(=O)(=O)c1ccc(Nc2nc3nccc(-c4cccs4)n3n2)cc1
Exercise: List the 3 entries from lowest Selectivity index II/XII to highest Selectivity index II/XII value. Return the labels ranked in the requested order, please.
Key: B, C, A
(B: 0.8, C: 1.5, A: 11.2)

---

- system: hCA IX (Homo sapiens)
- method: biochemical
- Assay type: biochemical
- conditions.used: ratio KI hCA IV / KI hCA IX
observation.type: Selectivity index IV/IX

Here's what some known entries look like.
smiles.notation | Selectivity index IV/IX
Cc1ccccc1-c1ccnc2nc(Nc3ccc(S(N)(=O)=O)cc3)nn12 | 1877
NS(=O)(=O)c1ccc(Nc2nc3nccc(-c4cccs4)n3n2)cc1 | 53.7
CCOc1ccc(-c2ccnc3nc(Nc4ccc(S(N)(=O)=O)cc4)nn23)cc1 | 83.9
NS(=O)(=O)c1ccc(Nc2nc3nccc(-c4ccccc4[N+](=O)[O-])n3n2)cc1 | 195
NS(=O)(=O)c1ccc(Nc2nc3nccc(-c4ccc(Cl)cc4)n3n2)cc1 | 53.9
NS(=O)(=O)c1ccc(Nc2nc3nccc(-c4ccc(I)cc4)n3n2)cc1 | 92.5

A = NS(=O)(=O)c1ccc(Nc2nc3nccc(-c4ccc(Br)cc4)n3n2)cc1
B = COc1ccc(-c2ccnc3nc(Nc4ccc(S(N)(=O)=O)cc4)nn23)cc1
Exercise: Lab note: check whether A or B shows the higher recorded Selectivity index IV/IX. State the label of the item chosen.
Key: A

---

- system: hCA II (Homo sapiens)
- method: stopped-flow CO2 hydrase assay, hCA II
- Assay type: biochemical
- conditions.used: stopped flow technique, mean from three assays
observation.type: Ki (nM)

Here's what some known entries look like.
smiles.notation | system | result
Cc1ccccc1-c1ccnc2nc(Nc3ccc(S(N)(=O)=O)cc3)nn12 | hCA II (Homo sapiens) | 42.8
NS(=O)(=O)c1ccc(Nc2nc3nccc(-c4ccc(I)cc4)n3n2)cc1 | hCA II (Homo sapiens) | 559
NS(=O)(=O)c1ccc(Nc2nc3nccc(-c4ccccc4[N+](=O)[O-])n3n2)cc1 | hCA II (Homo sapiens) | 77.1
NS(=O)(=O)c1ccc(Nc2nc3nccc(-c4ccc([N+](=O)[O-])cc4)n3n2)cc1 | hCA II (Homo sapiens) | 86.3
NS(=O)(=O)c1ccc(Nc2nc3nccc(-c4cccc(Br)c4)n3n2)cc1 | hCA II (Homo sapiens) | 133
COc1cc(OC)cc(-c2ccnc3nc(Nc4ccc(S(N)(=O)=O)cc4)nn23)c1 | hCA II (Homo sapiens) | 110
NS(=O)(=O)c1ccc(Nc2nc3nccc(-c4ccc(Cl)cc4)n3n2)cc1 | hCA II (Homo sapiens) | 62.4
NS(=O)(=O)c1ccc(Nc2nc3nccc(-c4c(F)ccc(F)c4F)n3n2)cc1 | hCA II (Homo sapiens) | 13.9
COc1ccccc1-c1ccnc2nc(Nc3ccc(S(N)(=O)=O)cc3)nn12 | hCA II (Homo sapiens) | 72.9
NS(=O)(=O)c1ccc(Nc2nc3nccc(-c4ccc(Br)cc4)n3n2)cc1 | hCA II (Homo sapiens) | 200

I = COc1cccc(-c2ccnc3nc(Nc4ccc(S(N)(=O)=O)cc4)nn23)c1
II = CCOc1ccc(-c2ccnc3nc(Nc4ccc(S(N)(=O)=O)cc4)nn23)cc1
Exercise: Lower value of Ki belongs to which: I or II ? State the label of the item chosen.
Key: I
(I: 33.8 nM, II: 69.3 nM)

1 = NS(=O)(=O)c1ccc(Nc2nc3nccc(-c4cccc(F)c4)n3n2)cc1
2 = NS(=O)(=O)c1ccc(Nc2nc3nccc(-c4ccccc4Cl)n3n2)cc1
3 = NS(=O)(=O)c1ccc(Nc2nc3nccc(-c4ccc(F)cc4)n3n2)cc1
Exercise: Order these by Ki, descending, and give the full ranking. Return the labels ranked in the requested order, please.
Key: 2, 3, 1

---

Assay read-out Ki; system under study: hCA XII (Homo sapiens, UniProt O43570).
observation.type: Ki (nM)

Here's what some known entries look like.
compound | Ki (nM)
COc1ccccc1-c1ccnc2nc(Nc3ccc(S(N)(=O)=O)cc3)nn12 [Compound 1y] | 31.6
NS(=O)(=O)c1ccc(Nc2nc3nccc(-c4ccccc4[N+](=O)[O-])n3n2)cc1 [Compound 1s] | 48.9
CCOc1ccc(-c2ccnc3nc(Nc4ccc(S(N)(=O)=O)cc4)nn23)cc1 [Compound 1z] | 55.2
Cc1ccc(-c2ccnc3nc(Nc4ccc(S(N)(=O)=O)cc4)nn23)cc1 [Compound 1t] | 61.2

1 = NS(=O)(=O)c1ccc(Nc2nc3nccc(-c4cccc(Cl)c4)n3n2)cc1 [Compound 1l]
2 = COc1cc(OC)cc(-c2ccnc3nc(Nc4ccc(S(N)(=O)=O)cc4)nn23)c1 [Compound 1aa]
3 = NS(=O)(=O)c1ccc(Nc2nc3nccc(-c4ccccc4Cl)n3n2)cc1 [Compound 1m]
4 = NS(=O)(=O)c1ccc(Nc2nc3nccc(-c4cccnc4)n3n2)cc1 [Compound 1d]
Exercise: List the 4 entries from lowest Ki to highest Ki value. Return the labels ranked in the requested order, please.
Key: 4, 3, 2, 1
(4: 8.8 nM, 3: 16.9 nM, 2: 27.1 nM, 1: 46.4 nM)

---

- system: hCA IX (Homo sapiens, UniProt Q16790)
- method: biochemical
- Format: biochemical
- conditions.used: ratio KI hCA II / KI hCA IX
observation.type: Selectivity index II/IX

Here's what some known entries look like.
smiles.notation | system | result
COc1ccccc1-c1ccnc2nc(Nc3ccc(S(N)(=O)=O)cc3)nn12 | hCA IX (Homo sapiens, UniProt Q16790) | 6.6
COc1cc(OC)cc(-c2ccnc3nc(Nc4ccc(S(N)(=O)=O)cc4)nn23)c1 | hCA IX (Homo sapiens, UniProt Q16790) | 2.4
Cc1cccc(-c2ccnc3nc(Nc4ccc(S(N)(=O)=O)cc4)nn23)c1 | hCA IX (Homo sapiens, UniProt Q16790) | 2.1
NS(=O)(=O)c1ccc(Nc2nc3nccc(-c4ccccc4)n3n2)cc1 | hCA IX (Homo sapiens, UniProt Q16790) | 2.3
COc1cccc(-c2ccnc3nc(Nc4ccc(S(N)(=O)=O)cc4)nn23)c1 | hCA IX (Homo sapiens, UniProt Q16790) | 6.6

1 = NS(=O)(=O)c1ccc(Nc2nc3nccc(-c4ccc(I)cc4)n3n2)cc1
2 = NS(=O)(=O)c1ccc(Nc2nc3nccc(-c4ccc(F)cc4)n3n2)cc1
3 = COc1ccc(-c2ccnc3nc(Nc4ccc(S(N)(=O)=O)cc4)nn23)cc1
Exercise: List the 3 entries from lowest Selectivity index II/IX to highest Selectivity index II/IX value. Return the labels ranked in the requested order, please.
Key: 3, 2, 1

---

- system: hCA IX (Homo sapiens, UniProt Q16790)
- method: biochemical
- Assay type: biochemical
- conditions.used: ratio KI hCA I / KI hCA IX
observation.type: Selectivity index I/IX

smiles.notation | system | Selectivity index I/IX
COc1ccc(-c2ccnc3nc(Nc4ccc(S(N)(=O)=O)cc4)nn23)cc1 | hCA IX (Homo sapiens, UniProt Q16790) | 32.0

1 = NS(=O)(=O)c1ccc(Nc2nc3nccc(-c4cccc([N+](=O)[O-])c4)n3n2)cc1
2 = Cc1ccccc1-c1ccnc2nc(Nc3ccc(S(N)(=O)=O)cc3)nn12
3 = NS(=O)(=O)c1ccc(Nc2nc3nccc(-c4ccncc4)n3n2)cc1
Exercise: List the 3 entries from lowest Selectivity index I/IX to highest Selectivity index I/IX value. Return the labels ranked in the requested order, please.
Key: 3, 1, 2

A = NS(=O)(=O)c1ccc(Nc2nc3nccc(-c4ccc([N+](=O)[O-])cc4)n3n2)cc1
B = NS(=O)(=O)c1ccc(Nc2nc3nccc(-c4cccc(Cl)c4)n3n2)cc1
C = COc1cc(OC)cc(-c2ccnc3nc(Nc4ccc(S(N)(=O)=O)cc4)nn23)c1
Exercise: Order these by Selectivity index I/IX, descending, and give the full ranking. Return the labels ranked in the requested order, please.
Key: B, C, A
(B: 216, C: 96.7, A: 61.8)
